Target: CYP2D6 (Homo sapiens)
Sequence (P10635 whole entry): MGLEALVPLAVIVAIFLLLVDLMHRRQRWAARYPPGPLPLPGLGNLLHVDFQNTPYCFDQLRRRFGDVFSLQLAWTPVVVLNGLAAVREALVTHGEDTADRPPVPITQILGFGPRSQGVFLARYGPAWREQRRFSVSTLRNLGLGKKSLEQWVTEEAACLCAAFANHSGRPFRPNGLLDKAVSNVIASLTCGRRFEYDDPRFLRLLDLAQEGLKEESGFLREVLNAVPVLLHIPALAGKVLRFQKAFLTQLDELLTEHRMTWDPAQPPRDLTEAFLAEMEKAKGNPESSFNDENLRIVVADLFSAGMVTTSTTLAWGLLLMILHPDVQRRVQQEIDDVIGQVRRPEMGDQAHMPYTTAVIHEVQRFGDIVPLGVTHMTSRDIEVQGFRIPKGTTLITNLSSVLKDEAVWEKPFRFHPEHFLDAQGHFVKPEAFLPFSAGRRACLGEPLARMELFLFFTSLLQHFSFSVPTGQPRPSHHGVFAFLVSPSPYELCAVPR
Assay: Inhibition of CYP2D6 in human liver microsomes assessed as remaining activity at 10 uM using dextromethorphan as substrate preincubated for 5 mins followed by addition of NADPH generating system measured after 15 mins by LC-MS analysis
Format: ADME
Conditions: probe dextromethorphan, read-out: Activity
measurement.kind: activity at 0.25 h, 10 µM

In plain terms, Clc1ccc(-c2n[nH]c3c2CCNCC3)cc1 has a documented activity at 0.25 h, 10 µM of 75.7%

----------
Organism: Homo sapiens
Assay: Selectivity index, ratio of Ki for human 5-HT2C receptor to Ki for human 5-HT7 receptor
measurement.kind: Ratio Ki
Format: numeric value only, no unit, no commentary.

The cases that follow already have their Ratio Ki on record.
- Cc1ccc(-c2n[nH]c3c2CCNCC3)cc1: 6.3
- Cc1ccc(-c2noc3c2CCNCC3)cc1: 1.3
- Fc1ccc(-c2n[nH]c3c2CCNCC3)cc1: 1.9
- Clc1ccc(-c2n[nH]c3c2CCNCC3)cc1: 26.6
- Fc1ccc(-c2noc3c2CCNCC3)cc1: 14.8

Now look at this one.
In plain terms, Clc1ccc(-c2noc3c2CCNCC3)cc1 has a documented Ratio Ki of 15.7

----------
Species on record: Homo sapiens
Assay: Selectivity index, ratio of Ki for human 5-HT2A receptor to Ki for human 5-HT7 receptor
In this section we review reported Ratio Ki values for a set of compounds.

The cases that follow already have their Ratio Ki on record.
• Clc1ccc(-c2n[nH]c3c2CCNCC3)cc1 = 6.2
• Clc1ccc(-c2noc3c2CCNCC3)cc1 = 5.7
• Cc1ccc(-c2noc3c2CCNCC3)cc1 = 8.6
• Fc1ccc(-c2n[nH]c3c2CCNCC3)cc1 = 1.7
• Fc1ccc(-c2noc3c2CCNCC3)cc1 = 8.9

In plain terms, Cc1ccc(-c2n[nH]c3c2CCNCC3)cc1 has a documented Ratio Ki of 3.4

----------
Quick record of pKi values for 5-hydroxytryptamine receptor 2B (Homo sapiens, UniProt P41595).
The meaning of pKi here: minus log10 of the concentration in molar units.

The cases that follow already have their pKi on record.
• Clc1ccc(-c2n[nH]c3c2CCNCC3)cc1 = 7.00
• Cc1ccc(-c2n[nH]c3c2CCNCC3)cc1 = 6.97

// assay 5-hydroxytryptamine receptor 2B (Homo sapiens, UniProt P41595), entry Fc1ccc(-c2n[nH]c3c2CCNCC3)cc1 , pKi value = 7.01

----------
Test: AUC (0 to infinity) in ICR mouse at 5 mg/kg, iv by LC-MS/MS analysis
Assay type: ADME, organism-based
Parameters: dose 5 mg/kg, time infinity, route intravenous
Conditions: in vivo
measurement.kind: AUC(0-inf) (µg·h/mL)
Field format: number, assumed µg·h/mL, no unit text.

In plain terms, Clc1ccc(-c2n[nH]c3c2CCNCC3)cc1 has a documented AUC(0-inf) of 5.21

----------
Species on record: Homo sapiens
Experiment: Selectivity index, ratio of Ki for human 5-HT1E receptor to Ki for human 5-HT7 receptor
measurement.kind: Ratio Ki
Format: numeric value only, no unit, no commentary.

- Fc1ccc(-c2n[nH]c3c2CCNCC3)cc1: 7.6
- Cc1ccc(-c2noc3c2CCNCC3)cc1: 112
- Clc1ccc(-c2n[nH]c3c2CCNCC3)cc1: 45.5

Now look at this one.
In plain terms, Cc1ccc(-c2n[nH]c3c2CCNCC3)cc1 has a documented Ratio Ki of 18.9

----------
In this section we review reported Ki values for a set of compounds.
Molecular target: 5-hydroxytryptamine receptor 2A (Homo sapiens)
Sequence (P28223 whole entry): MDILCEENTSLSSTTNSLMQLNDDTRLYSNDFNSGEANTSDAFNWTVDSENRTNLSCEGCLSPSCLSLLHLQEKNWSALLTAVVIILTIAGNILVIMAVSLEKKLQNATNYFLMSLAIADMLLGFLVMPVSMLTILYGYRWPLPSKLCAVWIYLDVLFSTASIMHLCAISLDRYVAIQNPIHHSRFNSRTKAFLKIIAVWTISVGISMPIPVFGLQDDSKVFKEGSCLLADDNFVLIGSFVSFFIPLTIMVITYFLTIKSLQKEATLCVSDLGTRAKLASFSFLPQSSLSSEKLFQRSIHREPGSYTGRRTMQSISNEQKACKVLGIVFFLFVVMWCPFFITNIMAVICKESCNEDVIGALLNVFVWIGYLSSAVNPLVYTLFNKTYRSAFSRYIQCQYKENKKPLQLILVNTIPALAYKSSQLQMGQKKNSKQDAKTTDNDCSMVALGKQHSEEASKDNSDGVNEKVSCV
Test: Displacement of [3H]LSD from human 5-HT2A receptor expressed in HEK cell membranes after 1.5 hrs by microbeta scintillation counting method
Output should be the measured figure followed by the unit it is expressed in.

- Fc1ccc(-c2noc3c2CCNCC3)cc1: 471 nM

In plain terms, Clc1ccc(-c2n[nH]c3c2CCNCC3)cc1 has a documented Ki of 187 nM

----------
Quick record of pKi values for 5-hydroxytryptamine receptor 5A (Homo sapiens, UniProt P47898).
pKi: −log10 of the molar value.

- Clc1ccc(-c2noc3c2CCNCC3)cc1: < 5.00
- Cc1ccc(-c2n[nH]c3c2CCNCC3)cc1: < 5.00
- Clc1ccc(-c2n[nH]c3c2CCNCC3)cc1: < 5.00

Now look at this one.
In plain terms, Fc1ccc(-c2noc3c2CCNCC3)cc1 has a documented pKi of 5.91

----------
Test: Terminal half-life in ICR mouse at 50 mg/kg, po by LC-MS/MS analysis
Format: ADME, organism-based
Conditions: in vivo, read-out: beta t1/2 (converted)
measurement.kind: half-life (h)
Field format: number, assumed h, no unit text.

In plain terms, Clc1ccc(-c2n[nH]c3c2CCNCC3)cc1 has a documented half-life of 2.77

----------
Assay: Apparent volume of distribution at steady state in ICR mouse at 5 mg/kg, iv by LC-MS/MS analysis
Format: ADME, organism-based
Conditions: in vivo, read-out: Vdss
measurement.kind: Vd

In plain terms, Clc1ccc(-c2n[nH]c3c2CCNCC3)cc1 has a documented Vd of 2.47 L/kg

----------
Target: 5-hydroxytryptamine receptor 7 (Homo sapiens, UniProt P34969)
Sequence (P34969 whole entry): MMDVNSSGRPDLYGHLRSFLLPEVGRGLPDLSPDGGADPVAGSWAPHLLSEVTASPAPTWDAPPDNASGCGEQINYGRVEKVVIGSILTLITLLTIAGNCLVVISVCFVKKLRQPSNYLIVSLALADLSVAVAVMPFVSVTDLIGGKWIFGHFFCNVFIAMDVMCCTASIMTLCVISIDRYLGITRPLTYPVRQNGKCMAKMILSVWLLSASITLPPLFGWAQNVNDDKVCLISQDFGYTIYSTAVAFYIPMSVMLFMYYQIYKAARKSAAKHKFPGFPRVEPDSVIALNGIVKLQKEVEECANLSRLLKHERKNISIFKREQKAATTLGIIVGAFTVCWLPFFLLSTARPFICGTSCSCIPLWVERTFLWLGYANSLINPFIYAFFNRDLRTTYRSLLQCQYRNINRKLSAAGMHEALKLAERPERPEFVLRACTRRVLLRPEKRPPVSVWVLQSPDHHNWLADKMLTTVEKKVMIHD
pKi: −log10 of the molar value.
measurement.kind: pKi

// assay 5-hydroxytryptamine receptor 7 (Homo sapiens, UniProt P34969), entry Cc1ccccc1-c1noc2c1CCNCC2 , pKi value = < 5.00

----------
Quick record of IC50 values for 5-hydroxytryptamine receptor 7 (Homo sapiens).
Field format: number, assumed µM, no unit text.

// assay 5-hydroxytryptamine receptor 7 (Homo sapiens), entry Fc1ccc(-c2noc3c2CCNCC3)cc1 , IC50 value = 2.46

// assay 5-hydroxytryptamine receptor 7 (Homo sapiens), entry Fc1ccc(-c2n[nH]c3c2CCNCC3)cc1 , IC50 value = 6.98

// assay 5-hydroxytryptamine receptor 7 (Homo sapiens), entry Cc1ccc(-c2noc3c2CCNCC3)cc1 , IC50 value = 0.844

// assay 5-hydroxytryptamine receptor 7 (Homo sapiens), entry Clc1ccc(-c2n[nH]c3c2CCNCC3)cc1 , IC50 value = 7.79

----------
Biological target: UniProtKB P11712
Sequence (P11712 whole entry): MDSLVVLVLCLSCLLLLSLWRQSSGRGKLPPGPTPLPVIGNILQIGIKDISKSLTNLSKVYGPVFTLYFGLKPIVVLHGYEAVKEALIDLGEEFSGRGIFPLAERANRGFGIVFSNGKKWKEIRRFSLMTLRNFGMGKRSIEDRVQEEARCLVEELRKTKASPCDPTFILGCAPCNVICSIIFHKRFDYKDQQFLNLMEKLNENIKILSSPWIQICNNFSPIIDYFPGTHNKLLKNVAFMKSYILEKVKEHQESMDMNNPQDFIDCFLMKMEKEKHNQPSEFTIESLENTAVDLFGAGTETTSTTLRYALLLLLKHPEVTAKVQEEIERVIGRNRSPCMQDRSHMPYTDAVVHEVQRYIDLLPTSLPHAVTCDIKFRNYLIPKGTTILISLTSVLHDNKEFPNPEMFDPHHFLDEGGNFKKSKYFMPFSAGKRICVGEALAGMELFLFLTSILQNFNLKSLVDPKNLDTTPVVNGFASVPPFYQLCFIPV
Assay: Inhibition of CYP2C9 in human liver microsomes assessed as remaining activity at 10 uM using diclofenac as substrate preincubated for 5 mins followed by addition of NADPH generating system measured after 15 mins by LC-MS analysis
Format: ADME
Settings: probe diclofenac, read-out: Activity
measurement.kind: activity at 0.25 h, 10 µM

// assay UniProtKB P11712, entry Clc1ccc(-c2n[nH]c3c2CCNCC3)cc1 , activity at 0.25 h, 10 µM value = > 100%

----------
Target: UniProt:P08684
Sequence (P08684 whole entry): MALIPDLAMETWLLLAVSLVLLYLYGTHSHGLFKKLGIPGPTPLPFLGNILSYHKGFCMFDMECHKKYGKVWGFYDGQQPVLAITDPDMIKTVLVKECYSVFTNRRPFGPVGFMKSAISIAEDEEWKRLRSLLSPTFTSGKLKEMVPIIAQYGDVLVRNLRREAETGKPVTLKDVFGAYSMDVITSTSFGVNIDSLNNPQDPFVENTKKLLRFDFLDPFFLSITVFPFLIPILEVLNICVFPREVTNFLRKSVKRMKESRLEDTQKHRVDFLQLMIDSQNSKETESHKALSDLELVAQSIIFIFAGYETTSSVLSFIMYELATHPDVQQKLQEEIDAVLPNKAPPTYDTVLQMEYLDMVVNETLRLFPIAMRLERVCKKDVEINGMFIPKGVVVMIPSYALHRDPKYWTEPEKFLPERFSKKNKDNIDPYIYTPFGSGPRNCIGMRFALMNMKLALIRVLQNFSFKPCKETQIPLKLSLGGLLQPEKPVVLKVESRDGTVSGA
Test: Inhibition of CYP3A4 in human liver microsomes assessed as remaining activity at 10 uM using midazolam as substrate preincubated for 5 mins followed by addition of NADPH generating system measured after 15 mins by LC-MS analysis
Format: ADME
Settings: probe midazolam, read-out: Activity
measurement.kind: activity at 0.25 h, 10 µM (%)
Field format: number, assumed %, no unit text.

In plain terms, Clc1ccc(-c2n[nH]c3c2CCNCC3)cc1 has a documented activity at 0.25 h, 10 µM of 95.4

----------
Molecular target: 5-hydroxytryptamine receptor 7 (Homo sapiens)
Rule: measured EC50 below 100 nM gets YES; anything equal to or greater than 100 nM gets NO.

Worked examples follow.
- Clc1ccc(-c2noc3c2CCNCC3)cc1: NO
- Cc1ccc(-c2n[nH]c3c2CCNCC3)cc1: NO
- Fc1ccc(-c2noc3c2CCNCC3)cc1: NO
- Cc1ccc(-c2noc3c2CCNCC3)cc1: YES
- Fc1ccc(-c2n[nH]c3c2CCNCC3)cc1: NO

Turning now to a further compound:
Please indicate whether the reported EC50 of Clc1ccc(-c2n[nH]c3c2CCNCC3)cc1 is strictly below 100 nM.
NO

----------
Experiment: Clearance in ICR mouse at 5 mg/kg, iv by LC-MS/MS analysis
Type: ADME, organism-based
Conditions: in vivo
measurement.kind: clearance (mL/min/kg)
Field format: number, assumed mL/min/kg, no unit text.

In plain terms, Clc1ccc(-c2n[nH]c3c2CCNCC3)cc1 has a documented clearance of 16

----------
Quick record of pKi values for 5-hydroxytryptamine receptor 6 (Homo sapiens).
The meaning of pKi here: minus log10 of the concentration in molar units.

- Cc1ccc(-c2noc3c2CCNCC3)cc1: 6.31

Now look at this one.
In plain terms, Clc1ccc(-c2n[nH]c3c2CCNCC3)cc1 has a documented pKi of 6.61

----------
Assay: AUClast in ICR mouse at 50 mg/kg, po by LC-MS/MS analysis
Type: ADME, organism-based
Parameters: dose 50 mg/kg, route oral, time 0 - last
Details: in vivo
measurement.kind: AUC(0-t) (ng·h/mL)
Field format: number, assumed ng·h/mL, no unit text.

In plain terms, Clc1ccc(-c2n[nH]c3c2CCNCC3)cc1 has a documented AUC(0-t) of 53700
